target: KRas-mediated phosphorylation of ERK in A549 cells (Homo sapiens, UniProt P01116, G12S); construct: pERK HTRF read-out; assay: Inhibition of KRas-mediated phosphorylation of ERK (HTRF), A549 cells; format: cell-based; conditions: HTRF pERK, 3 h incubation
Sequence (P01116 1-188 isoform P01116-2 G12S): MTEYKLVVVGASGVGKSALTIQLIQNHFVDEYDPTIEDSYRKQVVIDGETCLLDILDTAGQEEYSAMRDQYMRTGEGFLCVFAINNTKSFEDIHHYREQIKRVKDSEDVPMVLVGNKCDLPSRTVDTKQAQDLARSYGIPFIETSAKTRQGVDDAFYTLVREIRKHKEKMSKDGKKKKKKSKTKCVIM
OUTCOME MEASURE: IC50

Reading of IC50 for `CCc1c(F)ccc2cc(O)cc(-c3ncc4c(N5CC[C@H](C(=O)n6ccc(C)n6)[C@H](C)C5)nc(OC[C@@]56CCCN5C[C@H](F)C6)nc4c3F)c12` with KRas-mediated phosphorylation of ERK in A549 cells (Homo sapiens, UniProt P01116, G12S): 883 nM

Reading of IC50 for `CN(CCCC(=O)Nc1ccncc1)c1nc(OC[C@@]23CCCN2C[C@H](F)C3)nc2c(F)c(-c3ccc(F)c4sc(N)c(C#N)c34)c(Cl)cc12` with KRas-mediated phosphorylation of ERK in A549 cells (Homo sapiens, UniProt P01116, G12S): 1180 nM

Reading of IC50 for `COc1cccc(OC(=O)C2CCN(c3nc(OC[C@@]45CCCN4C[C@H](F)C5)nc4c(F)c(-c5ccc(F)c6sc(N)c(C#N)c56)c(Cl)cc34)CC2)c1` with KRas-mediated phosphorylation of ERK in A549 cells (Homo sapiens, UniProt P01116, G12S): 55 nM

Reading of IC50 for `CCc1c(F)ccc2cc(O)cc(-c3ncc4c(N5CCC(C(=O)n6ccc(N(C)C)n6)CC5)nc(OC[C@@]56CCCN5C[C@H](F)C6)nc4c3F)c12` with KRas-mediated phosphorylation of ERK in A549 cells (Homo sapiens, UniProt P01116, G12S): 338 nM

Reading of IC50 for `CCc1c(F)ccc2cc(O)cc(-c3ncc4c(N5C[C@@H](C)N(C(=O)n6ccc(C)n6)[C@H](C)C5)nc(OC[C@@]56CCCN5C[C@H](F)C6)nc4c3F)c12` with KRas-mediated phosphorylation of ERK in A549 cells (Homo sapiens, UniProt P01116, G12S): 8960 nM

Reading of IC50 for `CN(CCNC(=O)n1nccn1)c1nc(OC[C@@]23CCCN2C[C@H](F)C3)nc2c(F)c(-c3ccc(F)c4sc(N)c(C#N)c34)c(Cl)cc12` with KRas-mediated phosphorylation of ERK in A549 cells (Homo sapiens, UniProt P01116, G12S): 1180 nM

Reading of IC50 for `CN(CCCC(=O)Nc1ccccn1)c1nc(OC[C@@]23CCCN2C[C@H](F)C3)nc2c(F)c(-c3ccc(F)c4sc(N)c(C#N)c34)c(Cl)cc12` with KRas-mediated phosphorylation of ERK in A549 cells (Homo sapiens, UniProt P01116, G12S): 661 nM

Reading of IC50 for `Cc1ccn(C(=O)CCN(C)c2nc(OC[C@@]34CCCN3C[C@H](F)C4)nc3c(F)c(-c4ccc(F)c5sc(N)c(C#N)c45)c(Cl)cc23)n1` with KRas-mediated phosphorylation of ERK in A549 cells (Homo sapiens, UniProt P01116, G12S): 388 nM

Reading of IC50 for CCc1c(F)ccc2cc(O)cc(-c3ncc4c(N5CCN(C(=O)n6ccc(C)n6)C(CC#N)C5)nc(OC[C@@]56CCCN5C[C@H](F)C6)nc4c3F)c12 (stereo partly shown) with KRas-mediated phosphorylation of ERK in A549 cells (Homo sapiens, UniProt P01116, G12S): 9800 nM

Reading of IC50 for `CCc1c(F)ccc2cc(O)cc(-c3ncc4c(NC[C@@H]5C[C@H]5C(=O)N(C)C(C)=O)nc(OC[C@@]56CCCN5C[C@H](F)C6)nc4c3F)c12` with KRas-mediated phosphorylation of ERK in A549 cells (Homo sapiens, UniProt P01116, G12S): 243 nM

====

biological target: KRas-mediated phosphorylation of ERK in A549 cells (Homo sapiens, UniProt P01116, G12S); construct: pERK HTRF read-out; assay: Inhibition of KRas-mediated phosphorylation of ERK (HTRF), A549 cells; format: cell-based; settings: HTRF pERK, 3 h incubation
Consider the following compounds; for each one, report its IC50.

Reported IC50 for CCc1c(F)ccc2cc(O)cc(-c3ncc4c(N5CC6CCC(C(=O)n7ccc(C)n7)(C6)C5)nc(OC[C@@]56CCCN5C[C@H](F)C6)nc4c3F)c12 (some centres unmarked) was 584 nM

Reported IC50 for Cc1ccn(C(=O)C2CCCN(c3nc(OC[C@@]45CCCN4C[C@H](F)C5)nc4c(F)c(-c5ccc(F)c6sc(N)c(C#N)c56)c(Cl)cc34)CC2)n1 (some centres unmarked) was 7 nM

Reported IC50 for `CCc1c(F)ccc2cc(O)cc(-c3ncc4c(N5CCN(C(=O)n6cccn6)CC5)nc(OC[C@@]56CCCN5C[C@H](F)C6)nc4c3F)c12` was 2350 nM

Reported IC50 for `CN(CCCC(=O)Oc1cccc(F)c1)c1nc(OC[C@@]23CCCN2C[C@H](F)C3)nc2c(F)c(-c3ccc(F)c4sc(N)c(C#N)c34)c(Cl)cc12` was 489 nM

Reported IC50 for `CCc1c(F)ccc2cc(O)cc(-c3ncc4c(N5CC[C@@H]6[C@H](C5)[C@@H]6C(=O)n5ccc(C)n5)nc(OC[C@@]56CCCN5C[C@H](F)C6)nc4c3F)c12` was 7590 nM

Reported IC50 for COc1ccn(C(=O)C2CCCN(c3nc(OC[C@@]45CCCN4C[C@H](F)C5)nc4c(F)c(-c5ccc(F)c6sc(N)c(C#N)c56)c(Cl)cc34)CC2)n1 (some centres unmarked) was 8 nM

Reported IC50 for `CN(CCCC(=O)Oc1ccccc1F)c1nc(OC[C@@]23CCCN2C[C@H](F)C3)nc2c(F)c(-c3ccc(F)c4sc(N)c(C#N)c34)c(Cl)cc12` was 175 nM

Reported IC50 for CCc1c(F)ccc2cc(O)cc(N3CCc4c(nc(OC[C@@]56CCCN5C[C@H](F)C6)nc4N4CCCCC(C(=O)n5ccc(C)n5)CC4)C3)c12 (some centres unmarked) was 140 nM

Reported IC50 for `CCc1c(F)ccc2cc(O)cc(-c3ncc4c(NC[C@H]5C[C@@H]5C(=O)n5ccc(C)n5)nc(OC[C@@]56CCCN5C[C@H](F)C6)nc4c3F)c12` was 6 nM

Reported IC50 for `CCc1c(F)ccc2cc(O)cc(-c3ncc4c(N(C)CCNC(=O)n5nccn5)nc(OC[C@@]56CCCN5C[C@H](F)C6)nc4c3F)c12` was 5440 nM

Reported IC50 for `CCc1c(F)ccc2cc(O)cc(-c3ncc4c(N5CC[C@@H](C(=O)n6ccc(C)n6)[C@H](C)C5)nc(OC[C@@]56CCCN5C[C@H](F)C6)nc4c3F)c12` was 2030 nM

====

molecular target: KRas G12S (Homo sapiens, UniProt P01116, G12S); construct: Biotinylated KRas (corresponding to amino acids 1-169, produced at Accelegan Inc.); biotin (biotinylated); purchased Accelegan Inc; experiment: KRas binding assay, TR-FRET displacement of Cy5 labelled tracer; conditions: 60-minute incubation at room temperature, 1% DMSO, pH 7.5
OUTCOME MEASURE: IC50 (nM)
Response body: numeric value in nM, unit text excluded.

Reported IC50 for `CN(CCCC(=O)Oc1cccc(F)c1)c1nc(OC[C@@]23CCCN2C[C@H](F)C3)nc2c(F)c(-c3ccc(F)c4sc(N)c(C#N)c34)c(Cl)cc12` was 14

Reported IC50 for O=C(Oc1ccccc1)C1CCCN(c2nc(OCC34CCCN3CCC4)nc3c(F)c(-c4cccc5cccc(F)c45)ncc23)C1 (stereo not drawn) was 56500

====

target: KRas WT (Homo sapiens); construct: Biotinylated KRas (corresponding to amino acids 1-169, produced at Accelegan Inc.); biotin (biotinylated); purchased Accelegan Inc; experiment: KRas binding assay, TR-FRET displacement of Cy5 labelled tracer; details: 60-minute incubation at room temperature, 1% DMSO, pH 7.5
Sequence (P01116 1-169 isoform P01116-2): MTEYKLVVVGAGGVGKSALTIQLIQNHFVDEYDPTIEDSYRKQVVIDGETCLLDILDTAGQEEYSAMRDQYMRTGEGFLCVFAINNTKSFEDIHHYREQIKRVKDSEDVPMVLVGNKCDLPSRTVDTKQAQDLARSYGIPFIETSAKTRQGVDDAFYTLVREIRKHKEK
OUTCOME MEASURE: IC50 (nM)
Response body: numeric value in nM, unit text excluded.

Reported IC50 for CC(C)(C)c1ccn(C(=O)C2CCCN(c3nc(OC[C@@]45CCCN4C[C@H](F)C5)nc4c(F)c(-c5ccc(F)c6sc(N)c(C#N)c56)c(Cl)cc34)CC2)n1 (stereo partly shown) was 160

Reported IC50 for `Cc1ccn(C(=O)CCCCNc2nc(OC[C@@]34CCCN3C[C@H](F)C4)nc3c(F)c(-c4ccc(F)c5sc(N)c(C#N)c45)c(Cl)cc23)n1` was 25

Reported IC50 for `N#Cc1c(N)sc2c(F)ccc(-c3c(Cl)cc4c(N5CCC(C(=O)Oc6ccccc6Cl)CC5)nc(OC[C@@]56CCCN5C[C@H](F)C6)nc4c3F)c12` was 154

Reported IC50 for `Cc1ccn(C(=O)C2CCN(c3nc(OCC45CCCN4CCC5)nc4c(F)c(-c5cccc6cccc(F)c56)ncc34)CC2)n1` was 43900

Reported IC50 for `O=C(Oc1ccc(F)c(F)c1)[C@@H]1CCN(c2nc(OCC34CCCN3CCC4)nc3c(F)c(-c4cccc5cccc(F)c45)ncc23)C[C@@H]1O` was 20400

Reported IC50 for `CCc1c(F)ccc2cc(O)cc(-c3ncc4c(N5CCC(C(=O)Nc6ccccn6)CC5)nc(OC[C@@]56CCCN5C[C@H](F)C6)nc4c3F)c12` was 138

Reported IC50 for Cc1ccn(C(=O)[C@H]2CCCN(c3nc(OC[C@@]45CCCN4C[C@H](F)C5)nc4c(F)c(-c5ccc(F)c6sc(N)c(C#N)c56)c(Cl)cc34)CC2)n1 (atropisomer, axis not shown; (aS)) was 9

Reported IC50 for CCc1c(F)ccc2cc(O)cc(-c3ncc4c(N5CC6CC5CC6C(=O)n5ccc(C)n5)nc(OC[C@@]56CCCN5C[C@H](F)C6)nc4c3F)c12 (stereo partly shown) was 233

Reported IC50 for `CCc1c(F)ccc2cc(O)cc(-c3ncc4c(N5C[C@@H]6C[C@H](C(=O)n7ccc(C)n7)[C@@H]6C5)nc(OC[C@@]56CCCN5C[C@H](F)C6)nc4c3F)c12` was 314

Reported IC50 for CCc1c(F)ccc2cc(O)cc(-c3ncc4c(N5CC6CCC(C(=O)n7ccc(C)n7)C6C5)nc(OC[C@@]56CCCN5C[C@H](F)C6)nc4c3F)c12 (stereo partly shown) was 77

Reported IC50 for `COC(=O)C1CCN(c2nc(OCC34CCCN3CCC4)nc3c(F)c(-c4cccc5cccc(F)c45)ncc23)CC1` was 12300

Reported IC50 for `Cc1ccn(C(=O)CCN(C)c2cc(O[C@@H](C)[C@@H]3CCCN3C)nc(-c3noc([C@]4(C)CCCc5sc(N)c(C#N)c54)n3)n2)n1` was 264

Reported IC50 for `CN(CCNC(=O)n1ccnn1)c1nc(OC[C@@]23CCCN2C[C@H](F)C3)nc2c(F)c(-c3ccc(F)c4sc(N)c(C#N)c34)c(Cl)cc12` was 11

Reported IC50 for `CCc1c(F)ccc2cc(O)cc(-c3ncc4c(N5C[C@@H]6C[C@@H](C(=O)n7ccc(C)n7)[C@@H]6C5)nc(OC[C@@]56CCCN5C[C@H](F)C6)nc4c3F)c12` was 1050

Reported IC50 for `CCc1c(F)ccc2cc(O)cc(-c3ncc4c(N5CCC(C(=O)N(C)C(=O)C(C)(C)C)CC5)nc(OC[C@@]56CCCN5C[C@H](F)C6)nc4c3F)c12` was 177

Reported IC50 for CCc1c(F)ccc2cc(O)cc(-c3ncc4c(N5CCC(CC(=O)n6ccc(C)n6)C5)nc(OC[C@@]56CCCN5C[C@H](F)C6)nc4c3F)c12 (stereo partly shown) was 78

Reported IC50 for `CCc1c(F)ccc2cc(O)cc(-c3ncc4c(N5CCCN(C(=O)n6ccc(C)n6)CC5)nc(OC[C@@]56CCCN5C[C@H](F)C6)nc4c3F)c12` was 6

Reported IC50 for `N#Cc1c(N)sc2c(F)ccc(-c3c(Cl)cc4c(N5CCC(C(=O)N6CCCC6)CC5)nc(OC[C@@]56CCCN5C[C@H](F)C6)nc4c3F)c12` was 8

Reported IC50 for CCc1c(F)ccc2cc(O)cc(-c3ncc4c(N5CCC(C(=O)N(C)C(C)=O)C5)nc(OC[C@@]56CCCN5C[C@H](F)C6)nc4c3F)c12 (stereo partly shown) was 51

Reported IC50 for CN(C)Cc1ccn(C(=O)C2CCCN(c3nc(OC[C@@]45CCCN4C[C@H](F)C5)nc4c(F)c(-c5ccc(F)c6sc(N)c(C#N)c56)c(Cl)cc34)CC2)n1 (stereo partly shown) was 7

Reported IC50 for Cc1ccn(C(=O)C2CCCCN(c3nc(OC[C@@]45CCCN4C[C@H](F)C5)nc4c(F)c(-c5ccc(F)c6sc(N)c(C#N)c56)c(Cl)cc34)CC2)n1 (stereo partly shown) was 44

Reported IC50 for `CN(CCCC(=O)Nc1cccnc1)c1nc(OC[C@@]23CCCN2C[C@H](F)C3)nc2c(F)c(-c3ccc(F)c4sc(N)c(C#N)c34)c(Cl)cc12` was 6
